# test.target: DLG2_2, Q15700
# Sequence (Q15700 189-283): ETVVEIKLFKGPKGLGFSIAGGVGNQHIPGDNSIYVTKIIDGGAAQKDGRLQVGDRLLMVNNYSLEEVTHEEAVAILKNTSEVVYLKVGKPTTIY
# measurement.description: holdup assay
# Design: key: below the threshold = too weak to quantify, mostly under pKd 3.1 to 4
# assay.context: plain residues with an end cap or a label only (N-terminal biotin on a linker: ado-ado)
Decision: pKd >= 5 yields MET, all other cases yield NOT MET.

binder	assigned.category
VKRNSKETVV [MARCHF3, Q86UD3]	MET
NISYRRESAI [KCNJ4, P48050]	NOT MET
LESTTVGTSV [KARS1, Q15046]	NOT MET
DGVNEKVSCV [HTR2A, P28223]	NOT MET
DTKNYKQTSV [CRIPT, Q9P021]	NOT MET
ILRKSTTTTV [PRR16, Q569H4]	MET
DPAESMESLV [PTPRG, P23470]	NOT MET
RFQQRMQTHV [KIRREL1, Q96J84]	NOT MET
NTLNRKTTPV [CACNG8, Q8WXS5]	NOT MET
APIAGFSSFV [SDK2, Q58EX2]	NOT MET
TGLWKHETTV [ADGRA3, Q8IWK6]	MET
ARGPPRESEV [FAM110D, Q8TAY7]	MET
KRPEMTSSSV [MUC3A, MUC3B, Q02505;Q9H195]	NOT MET
AAVENKVTDL [PLXNB1, O43157]	NOT MET
NVYGIESVKI [GRIA2, P42262]	NOT MET
STKRKLASAV [NCF1, P14598]	NOT MET
ARESQKVSHV [FAM110B, Q8TC76]	NOT MET
TNSRHGETTV [FZD2, Q14332]	NOT MET
SVTSERETNI [SLC16A7, O60669]	NOT MET
MQHQRTHTRV [ZSCAN30, Q86W11]	NOT MET
